Molecular target: T1, recombinant BACE1 (BACE1 extracellular domain, R&D Systems Cat#931-AS) (UniProt P56817 22-457)
T1 construct: extracellular domain; also called BACE1 extracellular domain protein
T1 sequence (P56817 22-457): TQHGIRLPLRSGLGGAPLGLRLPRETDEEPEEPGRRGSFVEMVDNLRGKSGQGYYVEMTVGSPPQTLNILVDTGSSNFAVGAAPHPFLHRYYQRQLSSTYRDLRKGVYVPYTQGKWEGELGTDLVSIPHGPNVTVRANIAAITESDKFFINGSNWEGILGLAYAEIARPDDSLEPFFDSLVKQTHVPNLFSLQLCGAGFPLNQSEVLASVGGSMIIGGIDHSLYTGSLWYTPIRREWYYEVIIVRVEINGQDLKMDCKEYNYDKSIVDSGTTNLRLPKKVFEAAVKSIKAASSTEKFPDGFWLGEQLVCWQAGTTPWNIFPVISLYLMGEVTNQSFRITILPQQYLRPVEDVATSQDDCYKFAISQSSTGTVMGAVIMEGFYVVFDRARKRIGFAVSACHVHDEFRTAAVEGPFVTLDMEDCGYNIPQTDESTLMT
Assay: SPR Biacore T200, IgG captured, BACE1 analyte
Property: koff; scope: individual binders
Entry rule: numbers only, all in s⁻¹.

1D7 (antibody, human IgG1, V domains shown, chimeric, human IgG1/kappa; also called Clone 1D7) VH: EVKLMESGPGLVAPSQSLSISCTVSGFSLTSYGVDWVRQPPGKGLEWLGVVWGGGSTNYNSALMSRLSISKDNSKSQVFLKMNSLQTDDTAMYYCAKRDYFGGLNVWGTGTTVTVSS VL: DIVMTQTTSPLSVSLGDRVTISCRASQDISKYLNWYQQRPDGTVKLLIYYTSRLHSGVPSRFSGSGSGTDYSLTISNLEQEDIATYFCHQGHKIPYTFGGGTKLELK ... 0.00095
2H8 (antibody, human IgG1, V domains shown, chimeric, human IgG1/kappa; also called Clone 2H8; 2H8.01) VH: EVQLQQSGPELVKPGASVKLSCKASGYTFTNFWIHWLKQRPGQGLEWIGMIDPSDSYTKYNQKFKAKATLTVDTSSSTTYMHLSSLTSEDSAVYYCARSGVAFPYWGQRTLVTVSA VL: DIVMTQSQKFMSKSVGDTVSVTCKASQDVGRNVAWYQQKSGQSPKSLIYSASHRYSGVPDRFTGSGSGTDFTLTISNVQSEDLADYFCQQYNSYPYTFGGGTRLEIK ... 0.00019

Shifting focus to the binder that follows.
Which measured koff value corresponds to 4H10 (antibody, human IgG1, V domains shown, chimeric, human IgG1/kappa; also called Clone 4H10) VH: EIQLQQSGPELKKPGETVKISCKTSGYTFTTYGMTWVKQAPGKGLKWMGWINTYSGVPIYADDFKGRSAFSLETSASTAYLQINNLENEDTATYFCARRGSTAHYFDYWGQGTTVTVSS VL: DIVLTQSHKFMSTSVGDRVSITCKASQDVSTAVAWYQQKPGQSPKLLIYWASTRHTGVPDRFTGSGSGTDYTLTISSVQAEDLALYYCQQHYSTPYTFGGGTKLELK ?
0.0022

Cited source for all entries: patent US20210070881A1
